Data origin, for the record: patent US20100267784A1

The entries below are paired with their reported ERβ RBA (relative binding affinity).
- system: ERβ (Homo sapiens)
- assay_name: Competitive binding against [6,7-3H(N)]estradiol in COS-1 cells transfected with human ERβ
- measurement_conditions: relative to E2 = 100.0
reported_endpoint: ERβ RBA (relative binding affinity) (%)

{"compound": "Oc1ccc(CCC2=NOC(Cc3ccccc3)C2)cc1 (single isomer, unassigned) [93b]", "system": "ERβ (Homo sapiens)", "measure_unit": "%", "readout_value": 0.180}
{"compound": "CC1(c2ccccc2)CC(CCCc2ccc(O)cc2)=NO1 (single isomer, unassigned) [90b]", "system": "ERβ (Homo sapiens)", "measure_unit": "%", "readout_value": 0.010}
{"compound": "Oc1ccc(CCCC2=NOC(c3ccccc3)C2)cc1 (single isomer, unassigned) [88a]", "system": "ERβ (Homo sapiens)", "measure_unit": "%", "readout_value": 0.096}

----------
- system: ERα (Homo sapiens)
- Sequence (P03372 whole entry): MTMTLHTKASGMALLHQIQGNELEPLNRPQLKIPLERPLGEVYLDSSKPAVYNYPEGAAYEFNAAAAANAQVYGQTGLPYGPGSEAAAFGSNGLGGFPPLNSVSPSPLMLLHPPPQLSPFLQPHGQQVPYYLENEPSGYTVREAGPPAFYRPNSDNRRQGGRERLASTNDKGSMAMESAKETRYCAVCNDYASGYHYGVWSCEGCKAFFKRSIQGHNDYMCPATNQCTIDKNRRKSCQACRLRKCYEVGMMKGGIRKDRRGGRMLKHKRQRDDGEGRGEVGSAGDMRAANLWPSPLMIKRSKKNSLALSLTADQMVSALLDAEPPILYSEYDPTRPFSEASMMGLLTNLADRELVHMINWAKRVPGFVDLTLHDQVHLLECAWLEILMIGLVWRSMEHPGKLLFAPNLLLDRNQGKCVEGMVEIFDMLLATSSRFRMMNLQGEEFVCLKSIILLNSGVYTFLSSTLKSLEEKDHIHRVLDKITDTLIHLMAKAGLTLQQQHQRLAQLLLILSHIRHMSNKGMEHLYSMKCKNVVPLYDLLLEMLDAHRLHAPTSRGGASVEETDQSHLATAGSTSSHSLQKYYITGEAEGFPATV
- assay_name: ERα reporter (luciferase) transactivation assay in transfected HEK293 cells
- Assay type: cell-based
- Parameters: expressed in transfected cells; host or cells: HEK293
- measurement_conditions: sample concentration 10 μM, 24 hours, mean of at least three independent transfections
Lab note: anything with ERα receptor activation relative to 10 nM E2 corresponding 100 at or over 10% counts as fulfilled; the rest go in not fulfilled.

{"molecule": "Fc1ccc(CC2CC(CCc3ccccc3)=NO2)cc1 (single isomer, unassigned) [66b]", "system": "ERα (Homo sapiens)", "answer_label": "fulfilled"}
{"molecule": "Oc1ccccc1CCC1=NOC(CCc2ccccc2)C1 (single isomer, unassigned) [104b]", "system": "ERα (Homo sapiens)", "answer_label": "fulfilled"}
{"molecule": "COc1ccc(CCCC2=NOC(c3ccccc3)C2)cc1 (single isomer, unassigned) [72b]", "system": "ERα (Homo sapiens)", "answer_label": "not fulfilled"}
{"molecule": "CC1(c2ccccc2)CC(CCc2cccc(O)c2)=NO1 (single isomer, unassigned) [86b]", "system": "ERα (Homo sapiens)", "answer_label": "not fulfilled"}
{"molecule": "CC1(c2ccccc2)CC(CCc2ccccc2)=NO1 (single isomer, unassigned) [71b]", "system": "ERα (Homo sapiens)", "answer_label": "fulfilled"}
{"molecule": "CC1(c2ccccc2)CC(CCc2ccccc2O)=NO1 (single isomer, unassigned) [85b]", "system": "ERα (Homo sapiens)", "answer_label": "fulfilled"}
{"molecule": "c1ccc(CCC2=NOC(Cc3ccc4ccccc4c3)C2)cc1 (single isomer, unassigned) [68b]", "system": "ERα (Homo sapiens)", "answer_label": "fulfilled"}
{"molecule": "Oc1ccc(CCC2=NOC(Cc3ccccc3)C2)cc1 (single isomer, unassigned) [93a]", "system": "ERα (Homo sapiens)", "answer_label": "fulfilled"}

----------
- system: ERβ (Homo sapiens, UniProt Q92731)
- Sequence (Q92731 whole entry): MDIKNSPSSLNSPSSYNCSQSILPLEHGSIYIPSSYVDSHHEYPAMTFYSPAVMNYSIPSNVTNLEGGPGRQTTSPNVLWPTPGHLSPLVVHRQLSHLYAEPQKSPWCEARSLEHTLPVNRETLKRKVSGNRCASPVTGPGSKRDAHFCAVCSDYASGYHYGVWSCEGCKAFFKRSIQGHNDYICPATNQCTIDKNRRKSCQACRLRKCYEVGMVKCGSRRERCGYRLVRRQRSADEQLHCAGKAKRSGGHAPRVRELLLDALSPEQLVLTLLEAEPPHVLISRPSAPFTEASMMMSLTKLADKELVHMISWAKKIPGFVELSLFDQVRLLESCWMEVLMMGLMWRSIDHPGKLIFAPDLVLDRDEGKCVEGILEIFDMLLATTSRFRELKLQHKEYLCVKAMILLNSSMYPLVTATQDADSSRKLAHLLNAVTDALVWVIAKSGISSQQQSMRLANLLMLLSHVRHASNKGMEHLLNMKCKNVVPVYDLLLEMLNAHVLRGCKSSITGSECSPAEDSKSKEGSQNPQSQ
- assay_name: ERβ reporter (luciferase) transactivation assay in transfected HEK293 cells
- Type: cell-based
- Set-up: expressed in transfected cells; host or cells: HEK293
- measurement_conditions: sample concentration 10 μM, 24 hours, mean of at least three independent transfections
reported_endpoint: ERβ receptor activation relative to 10 nM E2 corresponding 100 (%)

{"compound": "Oc1ccc(CC2=NOC(c3cccc(O)c3)C2)cc1 (single isomer, unassigned) [83b]", "measure_unit": "%", "readout_value": 41.3}
{"compound": "Oc1ccc(CCCC2=NOC(c3cccc(O)c3)C2)cc1 (single isomer, unassigned) [89b]", "measure_unit": "%", "readout_value": 7.2}
{"compound": "Oc1ccc(CC2=NOC(c3ccccc3)C2)cc1 (single isomer, unassigned) [84a]", "measure_unit": "%", "readout_value": 0.2}
{"compound": "c1ccc(CCC2CC(c3ccccc3)=NO2)cc1 (single isomer, unassigned) [111b]", "measure_unit": "%", "readout_value": "−6.0"}
{"compound": "Oc1ccc(CC2CC(CCc3ccccc3O)=NO2)cc1 (single isomer, unassigned) [95a]", "measure_unit": "%", "readout_value": 2.4}
{"compound": "c1ccc(CCCC2=NOC(c3ccccc3)C2)cc1 (single isomer, unassigned) [113a]", "measure_unit": "%", "readout_value": "−3.1"}
{"compound": "Oc1ccc(CCC2=NOC(Cc3ccc(O)cc3)C2)cc1 (single isomer, unassigned) [96a]", "measure_unit": "%", "readout_value": 12.0}
{"compound": "Oc1ccc(CC2CC(CCc3ccccc3O)=NO2)cc1 (single isomer, unassigned) [95b]", "measure_unit": "%", "readout_value": 0.6}
{"compound": "Oc1ccc(CC2CC(CCCc3ccccc3)=NO2)cc1 (single isomer, unassigned) [100b]", "measure_unit": "%", "readout_value": 17.0}
{"compound": "CC1(c2ccccc2)CC(CCc2ccccc2)=NO1 (single isomer, unassigned) [71b]", "measure_unit": "%", "readout_value": "−7.3"}
{"compound": "c1ccc(CCC2=NOC(Cc3ccc4ccccc4c3)C2)cc1 (single isomer, unassigned) [68a]", "measure_unit": "%", "readout_value": 8.2}
{"compound": "CC1(c2ccccc2)CC(CCc2cccc(O)c2)=NO1 (single isomer, unassigned) [86a]", "measure_unit": "%", "readout_value": 0.5}
{"compound": "Oc1cccc(CCC2=NOC(Cc3ccccc3)C2)c1 (single isomer, unassigned) [92a]", "measure_unit": "%", "readout_value": 6.7}
{"compound": "Oc1ccc(CCCC2=NOC(Cc3ccccc3)C2)cc1O (single isomer, unassigned) [102b]", "measure_unit": "%", "readout_value": "−1.3"}
{"compound": "Oc1ccc(CCCC2=NOC(Cc3ccccc3)C2)cc1 (single isomer, unassigned) [99b]", "measure_unit": "%", "readout_value": 19.8}
{"compound": "c1ccc(CCC2=NOC(c3ccccc3)C2)cc1 (single isomer, unassigned) [110b]", "measure_unit": "%", "readout_value": 8.1}
{"compound": "c1ccc(CCCC2=NOC(c3ccccc3)C2)cc1 (single isomer, unassigned) [113b]", "measure_unit": "%", "readout_value": 17.2}
